- measured_on: Apoptotic protease-activating factor 1 (Homo sapiens, UniProt O14727)
- Sequence (O14727 whole entry): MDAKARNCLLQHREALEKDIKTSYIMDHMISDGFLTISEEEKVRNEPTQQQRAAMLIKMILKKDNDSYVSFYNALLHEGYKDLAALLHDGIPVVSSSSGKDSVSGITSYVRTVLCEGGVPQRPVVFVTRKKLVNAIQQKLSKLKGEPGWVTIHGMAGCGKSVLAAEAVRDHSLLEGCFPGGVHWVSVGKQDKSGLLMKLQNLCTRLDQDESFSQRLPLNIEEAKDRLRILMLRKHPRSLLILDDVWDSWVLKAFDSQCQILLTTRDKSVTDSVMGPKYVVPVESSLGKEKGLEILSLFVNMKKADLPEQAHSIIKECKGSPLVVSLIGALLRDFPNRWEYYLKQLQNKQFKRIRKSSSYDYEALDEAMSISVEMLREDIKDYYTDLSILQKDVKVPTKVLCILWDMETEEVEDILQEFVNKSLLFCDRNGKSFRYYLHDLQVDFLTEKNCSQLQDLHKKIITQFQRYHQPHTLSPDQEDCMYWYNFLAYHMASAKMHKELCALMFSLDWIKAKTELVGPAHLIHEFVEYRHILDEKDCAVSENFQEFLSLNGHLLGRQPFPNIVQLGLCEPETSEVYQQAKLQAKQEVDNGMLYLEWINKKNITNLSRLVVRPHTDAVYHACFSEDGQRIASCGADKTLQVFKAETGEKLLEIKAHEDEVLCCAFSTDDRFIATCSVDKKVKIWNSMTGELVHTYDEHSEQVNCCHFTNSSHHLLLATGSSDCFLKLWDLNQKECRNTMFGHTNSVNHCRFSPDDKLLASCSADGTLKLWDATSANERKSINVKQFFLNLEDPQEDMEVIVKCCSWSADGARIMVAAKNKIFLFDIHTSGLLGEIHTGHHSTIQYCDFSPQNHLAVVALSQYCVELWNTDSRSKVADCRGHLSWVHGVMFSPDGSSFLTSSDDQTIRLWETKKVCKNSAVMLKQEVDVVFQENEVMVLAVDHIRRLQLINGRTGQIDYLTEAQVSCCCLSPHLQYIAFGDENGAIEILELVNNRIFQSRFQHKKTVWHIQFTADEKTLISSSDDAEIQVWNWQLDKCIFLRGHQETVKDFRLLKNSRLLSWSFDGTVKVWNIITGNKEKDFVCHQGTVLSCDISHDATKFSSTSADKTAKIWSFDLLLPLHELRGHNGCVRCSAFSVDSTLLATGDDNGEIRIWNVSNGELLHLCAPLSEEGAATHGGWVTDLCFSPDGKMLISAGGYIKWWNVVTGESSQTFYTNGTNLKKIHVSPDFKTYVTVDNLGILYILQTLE
- Type: functional
Counter-ions that a name gives are not always drawn. Active and inactive are the calls of the source.
readout_label: IC50

### Prompt Looking for the measured IC50 of `COC(=O)c1ccccc1NC1=C/C(=N\S(=O)(=O)c2cccs2)c2ccccc2C1=O` , can you help?
### Response 1.82 µM (active)

### Prompt What would you report for `Clc1ccccc1-c1nn2c(-c3ccncc3)nnc2s1` ?
### Response 19.1 µM (active)

### Prompt Ok, now COc1cccc2c1C(=O)c1c(O)c3c(c(O)c1C2=O)C[C@@](O)(C(=O)CO)C[C@@H]3O[C@H]1C[C@H](N)[C@H](O)[C@H](C)O1 [DOXORUBICIN HYDROCHLORIDE]
### Response 21.2 µM (active)

### Prompt Here is the next compound: `CCCCCCCCCCC[N+](C)(C)CC/C=C1/c2ccccc2Sc2ccc(Cl)cc21`
### Response 11.6 µM (active)
